Entries and their log10 of IC50 values follow.
# subject.of.test: Human recombinant PDE2A (hPDE2A) (Homo sapiens, UniProt O00408)
# Construct: His tag (inferred from metal chelate purification); made in house; host or cells: Sf9 insect cells (baculovirus)
# Sequence (O00408 whole entry): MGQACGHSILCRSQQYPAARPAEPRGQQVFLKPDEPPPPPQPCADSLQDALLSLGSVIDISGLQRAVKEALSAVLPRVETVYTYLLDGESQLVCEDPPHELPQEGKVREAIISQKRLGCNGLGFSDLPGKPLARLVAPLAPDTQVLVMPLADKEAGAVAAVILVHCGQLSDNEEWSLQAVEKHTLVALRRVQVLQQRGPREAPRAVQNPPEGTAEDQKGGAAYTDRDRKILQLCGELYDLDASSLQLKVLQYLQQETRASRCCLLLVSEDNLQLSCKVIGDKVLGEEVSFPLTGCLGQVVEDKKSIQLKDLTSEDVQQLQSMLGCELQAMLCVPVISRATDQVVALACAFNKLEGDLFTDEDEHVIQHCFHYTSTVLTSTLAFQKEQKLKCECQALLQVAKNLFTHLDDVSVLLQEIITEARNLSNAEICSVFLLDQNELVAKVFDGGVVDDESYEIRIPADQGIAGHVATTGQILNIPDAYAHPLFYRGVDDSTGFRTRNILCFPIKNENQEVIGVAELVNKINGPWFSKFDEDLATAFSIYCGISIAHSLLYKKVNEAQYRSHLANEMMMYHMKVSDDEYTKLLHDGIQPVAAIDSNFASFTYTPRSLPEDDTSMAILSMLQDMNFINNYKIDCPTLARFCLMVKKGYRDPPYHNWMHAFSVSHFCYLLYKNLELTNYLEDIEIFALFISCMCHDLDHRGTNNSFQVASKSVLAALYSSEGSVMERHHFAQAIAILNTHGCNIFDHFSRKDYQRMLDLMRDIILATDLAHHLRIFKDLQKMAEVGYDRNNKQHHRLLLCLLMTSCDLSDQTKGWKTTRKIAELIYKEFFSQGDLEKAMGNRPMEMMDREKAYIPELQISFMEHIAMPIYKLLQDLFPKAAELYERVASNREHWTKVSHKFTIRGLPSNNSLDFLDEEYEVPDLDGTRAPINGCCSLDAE
# protocol.notes: In vitro assay PDE2A (SPA, 3H-cGMP hydrolysis)
# Format: biochemical
# condition.parameters: read-out: hPDE2A pIC50 (converted)
recorded.endpoint: log10 of IC50 (log10 of the value in nM)

                                   molecule  recorded_endpoint  result_value
0  C[C@@H]1CCN(C(=O)c2csc(N)n2)C[C@H]1c1cc(C(F)F)nc2ncnn12 [Compound 158]      log10 of IC50          1.81
1  C[C@@H]1CCN(C(=O)c2ccc(C(C)(C)C)o2)C[C@H]1c1cc(C(F)F)nc2ncnn12 [Compound 136]      log10 of IC50          0.53
2  COc1c(F)cc(C(=O)N2CC[C@@H](C)[C@H](c3cc(C(F)F)nc4ncnn34)C2)cc1F [Compound 128]      log10 of IC50          0.36
3  C[C@@H]1CCN(C(=O)c2ccnnc2)C[C@H]1c1cc(C(F)F)nc2ncnn12 [Compound 248]      log10 of IC50          2.54
4  Cc1cc([C@@H]2CN(C(=O)c3cc(Cl)ncc3C(F)(F)F)CC[C@H]2C)n2ncnc2n1 [Compound 270]      log10 of IC50          0.37
5  COc1cc(C(=O)N2[C@H]3CC[C@H](c4cc(C(F)F)nc5ncnn45)[C@@H]2CC3)ccc1F [Compound 343]      log10 of IC50          1.83
6  O=C(c1ccc2nccnc2c1)N1[C@H]2CC[C@H](c3cc(C(F)F)nc4ncnn34)[C@@H]1CC2 [Compound 381]      log10 of IC50          0.88

----------
# subject.of.test: PDE2A (Rattus norvegicus)
# Construct: Twenty μm-thick striatal sections were cut; from tissue; host or cells: rat brain, striatal sections
# Sequence (Q01062 whole entry): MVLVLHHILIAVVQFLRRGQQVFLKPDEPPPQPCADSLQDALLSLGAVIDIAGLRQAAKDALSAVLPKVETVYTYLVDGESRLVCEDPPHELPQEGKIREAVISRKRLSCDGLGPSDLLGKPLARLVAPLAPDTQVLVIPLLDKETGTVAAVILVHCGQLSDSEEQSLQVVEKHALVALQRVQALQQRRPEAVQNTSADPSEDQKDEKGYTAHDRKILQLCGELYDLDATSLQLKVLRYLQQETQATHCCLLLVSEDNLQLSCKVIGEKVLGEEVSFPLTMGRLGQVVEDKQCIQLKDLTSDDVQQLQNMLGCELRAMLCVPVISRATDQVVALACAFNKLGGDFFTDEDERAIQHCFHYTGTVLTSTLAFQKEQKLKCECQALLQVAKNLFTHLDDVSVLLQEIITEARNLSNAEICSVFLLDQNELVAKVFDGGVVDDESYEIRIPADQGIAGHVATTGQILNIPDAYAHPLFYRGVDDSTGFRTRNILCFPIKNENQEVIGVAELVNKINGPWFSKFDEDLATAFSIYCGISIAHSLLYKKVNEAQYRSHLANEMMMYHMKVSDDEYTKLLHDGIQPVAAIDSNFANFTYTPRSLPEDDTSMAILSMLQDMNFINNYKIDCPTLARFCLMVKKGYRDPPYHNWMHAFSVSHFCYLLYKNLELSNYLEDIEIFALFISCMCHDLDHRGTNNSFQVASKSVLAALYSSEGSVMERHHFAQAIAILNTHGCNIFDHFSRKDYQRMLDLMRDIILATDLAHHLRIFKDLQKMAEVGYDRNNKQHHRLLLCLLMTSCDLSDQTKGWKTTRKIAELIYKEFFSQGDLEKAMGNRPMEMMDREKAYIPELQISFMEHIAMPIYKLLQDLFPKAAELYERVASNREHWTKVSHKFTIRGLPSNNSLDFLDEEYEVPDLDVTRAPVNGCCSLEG
# protocol.notes: PDE2 occupancy by test compounds, ex-vivo autoradiography with [3H]B-17a
# Format: in vivo, Male Wistar rats
# condition.parameters: po, 10 mg/kg, route PO (oral), percentage receptor occupancy, ex-vivo autoradiography, striatum
Tick yes (1) if receptor occupancy at 10 mg/kg is 30% or greater. Tick no (0) if receptor occupancy at 10 mg/kg is less than 30%.

                                    compound  class_name
 0  Cc1cc(C(=O)N2CC[C@@H](C)[C@H](c3cc(C)nc4ncnn34)C2)cc(OC(F)F)n1 [Compound 275]      no (0)
 1  Cc1cc([C@@H]2CN(C(=O)c3cc(C4CC4)ncc3F)CC[C@H]2C)n2ncnc2n1 [Compound 224]      no (0)
 2  COc1cccc2c1OCC(C(=O)N1CC[C@@H](C)[C@H](c3cc(C(F)F)nc4ncnn34)C1)=C2 [Compound 267]     yes (1)
 3  C[C@@H]1CCN(C(=O)c2cc(Cl)ncc2Cl)C[C@H]1c1cc(C(F)F)nc2ncnn12 [Compound 43]      no (0)
 4  COc1cc(C(=O)N2CC[C@@H](C)[C@H](c3cc(C)nc4ncnn34)C2)c(F)cn1 [Compound 225]      no (0)
 5  C[C@@H]1CCN(C(=O)c2cc(Cl)ncc2F)C[C@H]1c1cc(C(F)F)nc2ncnn12 [Compound 54]     yes (1)
 6  C[C@@H]1CCN(C(=O)c2ccnc(Cl)c2)C[C@H]1c1cc(C(F)F)nc2ncnn12 [Compound 42]     yes (1)
 7  C[C@@H]1CCN(C(=O)c2cc(OC(F)F)cc(C3CC3)c2)C[C@H]1c1cc(C(F)F)nc2ncnn12 [Compound 91]      no (0)
 8  COc1cc(C(=O)N2CC[C@@H](C)[C@H](c3cc(C(F)F)nc4ncnn34)C2)c(F)cn1 [Compound 36]     yes (1)
 9  Cc1cc(C(=O)N2CC[C@@H](C)[C@](F)(c3cc(C(F)F)nc4ncnn34)C2)cc(C)n1 [Compound 82]      no (0)
10  C[C@@H]1CCN(C(=O)c2ccc(Cl)c(C(F)(F)F)c2)C[C@H]1c1cc(C(F)F)nc2ncnn12 [Compound 169]      no (0)
11  C[C@@H]1CCN(C(=O)c2nc3ccccc3o2)C[C@H]1c1cc(C(F)F)nc2ncnn12 [Compound 47]      no (0)
12  Cc1cc(C(=O)N2CC[C@@H](C)[C@H](c3cc(C(F)F)nc4ncnn34)C2)cc(OC(F)F)n1 [Compound 281]     yes (1)
13  COc1nc(N)ncc1C(=O)N1CC[C@@H](C)[C@H](c2cc(C(F)F)nc3ncnn23)C1 [Compound 38]      no (0)
14  Cc1cc(C(=O)N2CC[C@@H](C)[C@H](c3cc(C(F)F)nc4ncnn34)C2)cc(Cl)n1 [Compound 83]     yes (1)
15  COc1ncc(C(=O)N2CC[C@@H](C)[C@H](c3cc(C(F)F)nc4ncnn34)C2)cc1Cl [Compound 134]      no (0)
16  Cc1cc(Cl)cc(C(=O)N2CC[C@@H](C)[C@H](c3cc(C(F)F)nc4ncnn34)C2)c1 [Compound 102]      no (0)
17  Cc1cnc(Cl)cc1C(=O)N1CC[C@@H](C)[C@H](c2cc(C(F)F)nc3ncnn23)C1 [Compound 27]     yes (1)
18  Cc1cc(C(=O)N2CC[C@@H](C)[C@H](c3cc(C)nc4ncnn34)C2)cc(C(F)(F)F)n1 [Compound 4]      no (0)
19  Cc1nc2ccc(C(=O)N3CC[C@@H](C)[C@H](c4cc(C(F)F)nc5ncnn45)C3)cc2o1 [Compound 127]     yes (1)
20  Cc1cnc(C(F)(F)F)cc1C(=O)N1CC[C@@H](C)[C@H](c2cc(C(F)F)nc3ncnn23)C1 [Compound 52]      no (0)
21  COc1cc(C(=O)N2CC[C@@H](C)[C@H](c3cc(C(F)F)nc4ncnn34)C2)cc(OC)n1 [Compound 284]      no (0)
22  COc1ccc(C(=O)N2CC[C@@H](C)[C@H](c3cc(C(F)F)nc4ncnn34)C2)cn1 [Compound 196]      no (0)
23  Cc1csc(C(=O)N2CC[C@@H](C)[C@H](c3cc(C(F)F)nc4ncnn34)C2)c1 [Compound 126]     yes (1)
24  C[C@@H]1CCN(C(=O)c2ccc3ncc(F)cc3c2)C[C@H]1c1cc(C(F)F)nc2ncnn12 [Compound 332]      no (0)
25  COc1cc(C(=O)N2CC[C@@H](C)[C@H](c3cc(C(F)F)nc4ncnn34)C2)nc2ccccc12 [Compound 125]      no (0)
26  Cc1cc(C(=O)N2CC[C@@H](C)[C@H](c3cc(C(F)F)nc4ncnn34)C2)cc(C(F)F)n1 [Compound 321]     yes (1)
27  C[C@@H]1CCN(C(=O)c2ccc3ncsc3c2)C[C@@]1(F)c1cc(C(F)F)nc2ncnn12 [Compound 33]      no (0)
28  C[C@@H]1CCN(C(=O)c2ccc(Cl)c(OC(F)F)c2)C[C@H]1c1cc(C(F)F)nc2ncnn12 [Compound 121]      no (0)
29  C[C@@H]1CCN(C(=O)c2ccc3cc[nH]c3c2)C[C@H]1c1cc(C(F)F)nc2ncnn12 [Compound 106]      no (0)
30  COc1cc(C(=O)N2CC[C@@H](C)[C@H](c3cc(C(F)F)nc4ncnn34)C2)ccc1Cl [Compound 130]      no (0)

----------
# subject.of.test: Human recombinant PDE2A (hPDE2A) (Homo sapiens, UniProt O00408)
# Construct: His tag (inferred from metal chelate purification); made in house; host or cells: Sf9 insect cells (baculovirus)
# protocol.notes: In vitro assay PDE2A (SPA, 3H-cGMP hydrolysis)
# Format: biochemical
# condition.parameters: read-out: hPDE2A Emax
recorded.endpoint: Emax

>>> df
                           molecular_string  result_value
0  Cc1cc(C(=O)N2[C@H]3CC[C@H](c4cc(C(F)F)nc5ncnn45)[C@@H]2CC3)cc(C)n1          101%
1  CCc1cc(C(=O)N2CC[C@@H](C)[C@H](c3cc(C(F)F)nc4ncnn34)C2)cc(C)n1          100%
2  C[C@@H]1CCN(C(=O)c2cocn2)C[C@H]1c1cc(C(F)F)nc2ncnn12           98%
3  Cc1cc(C(=O)N2CC[C@@H](C)[C@H](c3cc(C(F)F)nc4ncnn34)C2)cc(C)[n+]1[O-]          100%

Source of measurements: patent US10947242B2
